Target: human GSTP1-1 (Homo sapiens, UniProt P09211)
Sequence (P09211 2-210 limits assumed): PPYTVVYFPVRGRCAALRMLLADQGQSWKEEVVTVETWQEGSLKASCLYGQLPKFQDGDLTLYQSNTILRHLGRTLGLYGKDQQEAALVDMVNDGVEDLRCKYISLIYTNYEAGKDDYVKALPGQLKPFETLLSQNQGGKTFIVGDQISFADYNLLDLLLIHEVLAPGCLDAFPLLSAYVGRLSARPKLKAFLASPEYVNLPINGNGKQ
quantity: Ki
Output should be the measured figure followed by the unit it is expressed in.

What value of Ki on human GSTP1-1 (Homo sapiens, UniProt P09211) does O=C(NCCCCCCSc1ccc([N+](=O)[O-])c2nonc12)c1ccccc1 have?
0.7 µM
